# tgt: EZH1 (Homo sapiens, UniProt Q92800)
# Sequence (Q92800 whole entry, species assumed, one chain of several): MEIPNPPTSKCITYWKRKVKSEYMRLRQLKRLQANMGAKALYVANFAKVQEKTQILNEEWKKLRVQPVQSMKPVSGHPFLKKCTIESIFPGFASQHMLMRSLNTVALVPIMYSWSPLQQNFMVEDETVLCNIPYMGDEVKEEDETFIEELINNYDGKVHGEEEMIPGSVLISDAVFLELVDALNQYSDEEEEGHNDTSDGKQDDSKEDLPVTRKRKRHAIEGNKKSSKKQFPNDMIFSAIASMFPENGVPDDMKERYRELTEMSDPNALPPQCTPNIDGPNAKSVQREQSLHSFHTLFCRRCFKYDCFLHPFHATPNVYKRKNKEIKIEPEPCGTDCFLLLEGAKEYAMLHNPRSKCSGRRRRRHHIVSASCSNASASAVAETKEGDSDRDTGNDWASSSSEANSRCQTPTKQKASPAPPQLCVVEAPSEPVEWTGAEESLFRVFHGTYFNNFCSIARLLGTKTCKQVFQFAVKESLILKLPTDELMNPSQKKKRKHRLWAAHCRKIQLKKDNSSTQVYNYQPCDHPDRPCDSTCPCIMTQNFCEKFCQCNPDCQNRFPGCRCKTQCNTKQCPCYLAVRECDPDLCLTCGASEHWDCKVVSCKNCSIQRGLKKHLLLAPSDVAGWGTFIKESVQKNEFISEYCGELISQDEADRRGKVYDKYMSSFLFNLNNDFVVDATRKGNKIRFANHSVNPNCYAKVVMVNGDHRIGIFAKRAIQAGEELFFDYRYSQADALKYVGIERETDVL
# measurement-protocol: AlphaLISA enzyme activity inhibition, EZH1
# Type: biochemical
# experimental-context: 5nM test substance
Could you please classify the records by inhibition at 0.005 µM using these ranges: Low = under 40%, Mid = from 40% up to 70%, High = 70% and over

Example results:
molecule: CSc1cc(C)[nH]c(=O)c1CNC(=O)c1cc(-c2ccc3c(c2)OC(F)(F)O3)c2c(c1C)OC(C)(C1CCN(CC(F)(F)F)CC1)O2 (centres unmarked)
tgt: EZH1 (Homo sapiens, UniProt Q92800)
label-value: Low
//
molecule: CCN1CCN(c2ncc(-c3cc(C(=O)NCc4c(SC)cc(C)[nH]c4=O)c(C)c4c3OC(C)(C3CCN(CC(F)(F)F)CC3)O4)cn2)CC1 (centres unmarked) [Compound 75]
tgt: EZH1 (Homo sapiens, UniProt Q92800)
label-value: Mid
//
molecule: CSc1cc(C)[nH]c(=O)c1CNC(=O)c1cc(-c2ccc(N3C[C@@H](C)O[C@@H](C)C3)nc2)c2c(c1C)OC(C)(C1CCN(C(=O)C(F)(F)F)CC1)O2 (single isomer, unassigned)
tgt: EZH1 (Homo sapiens, UniProt Q92800)
label-value: Mid

For the record CSc1cc(C)[nH]c(=O)c1CNC(=O)c1cc(-c2cnc(N3CCCCC3)nc2)c2c(c1C)OC(C)([C@H]1CC[C@H](N(C)C)CC1)O2 (relative stereo) , report the class its inhibition at 0.005 µM corresponds to.
High

For the record CSc1cc(C)[nH]c(=O)c1CNC(=O)c1cc(-c2cnc(N(C)C)nc2)c2c(c1C)OC(C)(C1CCN(CC(F)(F)F)CC1)O2 (centres unmarked) , report the class its inhibition at 0.005 µM corresponds to.
Mid

For the record CCN1CCC(C2(C)Oc3c(-c4cnc(N(C)CC)nc4)cc(C(=O)NCc4c(SC)cc(C)[nH]c4=O)c(C)c3O2)CC1 (single isomer, unassigned) , report the class its inhibition at 0.005 µM corresponds to.
Mid

For the record CSc1cc(C)[nH]c(=O)c1CNC(=O)c1cc(-c2ccc3c(c2)OCO3)c2c(c1C)OC(C)(C1CCN(CC(F)(F)F)CC1)O2 (centres unmarked) , report the class its inhibition at 0.005 µM corresponds to.
Low

For the record CSc1cc(C)[nH]c(=O)c1CNC(=O)c1cc(-c2ccc(F)nc2F)c2c(c1C)OC(C)([C@H]1CC[C@H](N(C)C)CC1)O2 (relative stereo) , report the class its inhibition at 0.005 µM corresponds to.
High

For the record CCCCN(C)c1ccc(-c2cc(C(=O)NCc3c(SC)cc(C)[nH]c3=O)c(C)c3c2OC(C)(C2CCN(CC(F)(F)F)CC2)O3)cn1 (centres unmarked) , report the class its inhibition at 0.005 µM corresponds to.
Low

For the record CSc1cc(C)[nH]c(=O)c1CNC(=O)c1cc(-c2ccc(F)cc2)c2c(c1C)OC(C)([C@H]1CC[C@H](N(C)C)CC1)O2 (relative stereo) , report the class its inhibition at 0.005 µM corresponds to.
High

###

# tgt: EZH2 (Homo sapiens)
# Sequence (Q15910 whole entry, species assumed): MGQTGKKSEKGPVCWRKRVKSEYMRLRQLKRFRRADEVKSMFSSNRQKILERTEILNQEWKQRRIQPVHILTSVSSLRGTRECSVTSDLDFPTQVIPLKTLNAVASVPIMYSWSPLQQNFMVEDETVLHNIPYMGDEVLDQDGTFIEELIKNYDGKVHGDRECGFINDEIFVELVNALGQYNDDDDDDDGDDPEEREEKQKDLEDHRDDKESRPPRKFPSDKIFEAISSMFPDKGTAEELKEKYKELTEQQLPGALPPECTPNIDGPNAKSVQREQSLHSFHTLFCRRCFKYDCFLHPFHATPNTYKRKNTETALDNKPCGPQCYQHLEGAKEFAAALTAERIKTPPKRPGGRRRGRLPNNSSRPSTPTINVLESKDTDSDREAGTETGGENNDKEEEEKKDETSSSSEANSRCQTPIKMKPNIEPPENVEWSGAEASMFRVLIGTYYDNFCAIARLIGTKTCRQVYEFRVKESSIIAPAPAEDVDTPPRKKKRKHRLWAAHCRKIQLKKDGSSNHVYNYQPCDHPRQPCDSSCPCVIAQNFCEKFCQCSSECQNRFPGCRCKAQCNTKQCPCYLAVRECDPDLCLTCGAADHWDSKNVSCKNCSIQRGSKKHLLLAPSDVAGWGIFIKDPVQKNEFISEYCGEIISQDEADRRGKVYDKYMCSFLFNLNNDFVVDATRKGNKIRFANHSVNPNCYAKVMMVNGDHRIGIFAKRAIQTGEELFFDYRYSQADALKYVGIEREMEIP
# Sequence (O75530 whole entry partner, species assumed): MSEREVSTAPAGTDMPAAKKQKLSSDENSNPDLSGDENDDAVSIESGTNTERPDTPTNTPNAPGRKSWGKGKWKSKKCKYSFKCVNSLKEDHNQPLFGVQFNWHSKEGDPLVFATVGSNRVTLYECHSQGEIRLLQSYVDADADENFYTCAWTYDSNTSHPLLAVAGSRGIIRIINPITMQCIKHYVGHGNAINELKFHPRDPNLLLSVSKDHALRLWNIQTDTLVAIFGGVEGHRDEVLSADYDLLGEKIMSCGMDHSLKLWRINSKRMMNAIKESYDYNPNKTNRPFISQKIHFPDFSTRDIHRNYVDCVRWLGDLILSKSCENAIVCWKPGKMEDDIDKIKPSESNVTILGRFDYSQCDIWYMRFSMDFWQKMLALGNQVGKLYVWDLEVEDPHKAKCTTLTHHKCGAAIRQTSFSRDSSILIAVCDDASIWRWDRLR
# Sequence (Q15022 whole entry partner, species assumed): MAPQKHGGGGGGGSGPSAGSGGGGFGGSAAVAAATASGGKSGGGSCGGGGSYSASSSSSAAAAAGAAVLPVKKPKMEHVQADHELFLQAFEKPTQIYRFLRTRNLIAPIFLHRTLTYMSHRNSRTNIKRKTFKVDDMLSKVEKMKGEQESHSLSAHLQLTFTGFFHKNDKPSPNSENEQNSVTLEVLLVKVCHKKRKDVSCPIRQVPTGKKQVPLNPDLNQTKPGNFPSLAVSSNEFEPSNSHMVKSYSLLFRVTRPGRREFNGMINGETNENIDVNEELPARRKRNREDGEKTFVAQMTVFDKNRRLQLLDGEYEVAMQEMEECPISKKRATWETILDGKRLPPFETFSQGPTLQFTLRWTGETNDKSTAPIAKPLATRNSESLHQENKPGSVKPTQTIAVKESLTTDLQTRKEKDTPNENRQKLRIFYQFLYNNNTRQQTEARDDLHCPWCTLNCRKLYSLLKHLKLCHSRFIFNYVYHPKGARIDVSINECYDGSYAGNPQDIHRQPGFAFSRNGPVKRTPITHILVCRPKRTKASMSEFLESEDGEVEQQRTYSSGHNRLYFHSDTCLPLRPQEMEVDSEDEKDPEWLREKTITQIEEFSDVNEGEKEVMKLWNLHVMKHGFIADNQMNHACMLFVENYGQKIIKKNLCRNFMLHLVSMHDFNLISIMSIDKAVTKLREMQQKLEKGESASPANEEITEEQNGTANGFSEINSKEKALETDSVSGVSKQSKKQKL
# measurement-protocol: AlphaLISA enzyme activity inhibition, EZH2
# Assay type: biochemical
# experimental-context: 10nM test substance
Reported inhibition at 0.01 µM values follow for various compounds
A number alone suffices; assume %.

compound: CSc1cc(C)[nH]c(=O)c1CNC(=O)c1cc(-c2ccc(N3C[C@@H](C)O[C@@H](C)C3)nc2)c2c(c1C)OC(C)(C1CCN(C3CCCCC3)CC1)O2 (single isomer, unassigned)
inhibition at 0.01 µM (%): 99.6

compound: CSc1cc(C)[nH]c(=O)c1CNC(=O)c1cc(-c2ccc(N3C[C@@H](C)O[C@@H](C)C3)nc2)c2c(c1C)OC(C)([C@H]1CC[C@H](N3CC(O)C3)CC1)O2 (some centres unmarked)
inhibition at 0.01 µM (%): 100

compound: CSc1cc(C)[nH]c(=O)c1CNC(=O)c1cc(-c2ccc3c(c2)OCO3)c2c(c1C)OC(C)(C1CCN(CC(F)(F)F)CC1)O2 (centres unmarked)
inhibition at 0.01 µM (%): 82

Assign inhibition at 0.01 µM to the following record: CSc1cc(C)[nH]c(=O)c1CNC(=O)c1cc(-c2ccc(N3CCCCC3)cc2)c2c(c1C)OC(C)(C1CCN(CC(F)(F)F)CC1)O2 (centres unmarked)
82.3

Assign inhibition at 0.01 µM to the following record: CSc1cc(C)[nH]c(=O)c1CNC(=O)c1cc(-c2cnc(N3CCOCC3)nc2)c2c(c1C)OC(C)(C1CCN(CC(F)F)CC1)O2 (single isomer, unassigned)
99.5

Sourced from patent EP4740948A1
